Listed here are molecules together with their documented Ki.
experimental-target: human H4 receptor (Homo sapiens)
Construct: expressed in transfected cells
Sequence (Q9H3N8 whole entry): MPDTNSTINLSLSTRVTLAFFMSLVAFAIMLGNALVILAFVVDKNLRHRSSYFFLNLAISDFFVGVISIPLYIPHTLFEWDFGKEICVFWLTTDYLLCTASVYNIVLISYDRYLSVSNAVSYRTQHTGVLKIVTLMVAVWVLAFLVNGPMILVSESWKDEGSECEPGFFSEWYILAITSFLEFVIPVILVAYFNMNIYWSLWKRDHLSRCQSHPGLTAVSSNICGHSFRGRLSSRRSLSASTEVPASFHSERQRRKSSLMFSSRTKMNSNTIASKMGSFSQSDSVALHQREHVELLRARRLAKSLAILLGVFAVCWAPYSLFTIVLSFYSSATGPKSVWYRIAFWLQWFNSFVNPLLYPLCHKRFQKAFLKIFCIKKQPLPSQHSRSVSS
test-description: Binding Assay on Recombinant Human Histamine H4 Receptor
run-conditions: Table 1; [3H] histamine competition binding, membranes of SK-N-MC cells transfected with human H4 receptor; average of results
Please respond with the number in µM and leave the unit unwritten.

Consider the following illustrative entries.
> print(dat)
                                   molecule  readout.type    val
1  CN1CCN(c2cc(C3CCCCC3)nc(N)n2)CC1 [Example 52]            Ki  0.003
2  Nc1nc(C2CC2)cc(N2CC3CCCNC3C2)n1 (stereo not drawn) [Example 42]            Ki  0.018

Pending molecule:
Look up and report Ki, with human H4 receptor (Homo sapiens) as system, for CN1CCN(c2cc(C3CCOC3)nc(N)n2)CC1 (stereo not drawn) [Example 57]
0.027

----------
experimental-target: human H4 receptor (Homo sapiens)
Construct: expressed in transfected cells
test-description: Binding Assay on Recombinant Human Histamine H4 Receptor
run-conditions: Table 2; [3H] histamine competition binding, membranes of SK-N-MC cells transfected with human H4 receptor; average of results
Under this convention, Y denotes Ki strictly below 20 nM and N denotes Ki at or above 20 nM.

Recorded results for 4 compounds are shown here.
> print(dat)
                                   compound  group
1                 CCOCc1cc(N2CCNCC2)nc(N)n1      N
2  Nc1nc(C2CCCC2)cc(N2CCC3(CCCN3)C2)n1 (racemic) [Example 84]      Y
3           CC(C)OCc1cc(N2CCN(C)CC2)nc(N)n1      N
4        Nc1nc(C2Cc3ccccc3C2)cc(N2CCNCC2)n1      Y

// switching to the query compound
Please check: Ki for "Nc1nc(C2CCCC2)cc(N2CC(N)C2)n1" , strictly under 20 nM or not?
Y

----------
Listed here are molecules together with their documented Ki.
experimental-target: human H4 receptor (Homo sapiens)
Construct: expressed in transfected cells
test-description: Binding Assay on Recombinant Human Histamine H4 Receptor
run-conditions: Table 2; [3H] histamine competition binding, membranes of SK-N-MC cells transfected with human H4 receptor; average of results
Please respond with the number in nM and leave the unit unwritten.

> print(dat)
                                    molecule  readout.type  val
 1    CCCCc1cc(N(C)CCN)nc(N)n1 [Example 138]            Ki   44
 2  CN1CCN(c2cc(Cc3cccs3)nc(N)n2)CC1 [Example 213]            Ki    4
 3  Nc1nc(C2CCOC2)cc(N2CC3CCCNC3C2)n1 (stereo not drawn) [Example 190]            Ki   11
 4  Nc1nc(C2CCOC2)cc(N2CCCNCC2)n1 (stereo not drawn) [Example 192]            Ki   17
 5  CC(C)c1cc(N2CC[C@H](N)C2)nc(N)n1 [Example 126]            Ki   23
 6  CCCc1cc(N2CCN(C)CC2)nc(N)n1 [Example 144]            Ki    6
 7  Nc1nc(CCC(F)(F)F)cc(N2CC[C@@H](N)C2)n1 [Example 184]            Ki   13
 8  CCCCc1cc(N2C[C@H]3CNC[C@H]3C2)nc(N)n1 [Example 140]            Ki  397
 9  CN[C@@H]1CCN(c2cc(C3Cc4ccccc4C3)nc(N)n2)C1 [Example 164]            Ki    4
10  CCCCc1cc(N2CC[C@@H](N)C2)nc(N)n1 [Example 135]            Ki    4

Given the molecule Nc1nc(Cc2ccncc2)cc(N2CCNCC2)n1 [Example 204] , write its reported Ki.
45

Given the molecule Nc1nc(Cc2cccs2)cc(N2CC[C@@H](N)C2)n1 [Example 216] , write its reported Ki.
32

Given the molecule Nc1nc(CC2CCCO2)cc(N2CC3CCCNC3C2)n1 (stereo not drawn) [Example 231] , write its reported Ki.
59

Given the molecule CC(C)c1cc(N(C)CCN)nc(N)n1 [Example 92] , write its reported Ki.
281

Given the molecule NCCNc1cc(Cc2ccsc2)nc(N)n1 [Example 212] , write its reported Ki.
12

Given the molecule Nc1nc(Cc2ccccc2)cc(N2CC[C@@H](N)C2)n1 [Example 167] , write its reported Ki.
78

Given the molecule CNCCN(C)c1cc(C2CCOC2)nc(N)n1 (stereo not drawn) [Example 197] , write its reported Ki.
204

Given the molecule Nc1nc(Cc2ccsc2)cc(N2CC[C@@H](N)C2)n1 [Example 210] , write its reported Ki.
12

Given the molecule Nc1nc(C2Cc3ccccc3C2)cc(N2CC[C@@H](N)C2)n1 [Example 162] , write its reported Ki.
5

Given the molecule COCc1cc(N2CCCNCC2)nc(N)n1 [Example 117] , write its reported Ki.
42

Given the molecule CN[C@@H]1CCN(c2cc(C3Cc4ccccc4O3)nc(N)n2)C1 (stereo partly drawn) [Example 169] , write its reported Ki.
396
